Values compiled from patent US4319028A.

Here's what we have: MIC numbers for Escherichia coli.

| COMPOUND | CENSOR_SYMBOL | MIC [µg/mL] |
| --- | --- | --- |
| NC(=O)OCC1=C(C(=O)O)N2C(=O)C(NC(=O)C(NC(=O)c3cccc(O)c3O)c3ccccc3)C2SC1 (stereo not shown) [Example 20] | = | 74 |
| Cc1nnc(SCC2=C(C(=O)O)N3C(=O)C(NC(=O)[C@H](NC(=O)c4ccc(O)c(O)c4O)c4ccc(O)cc4)C3SC2)s1 (stereo partly shown) [Example 7] | = | 100 |
| Cc1nnc(SCC2=C(C(=O)O)N3C(=O)C(NC(=O)[C@H](NC(=O)c4ccc(O)c(Cl)c4)c4ccc(O)cc4)C3SC2)s1 (stereo partly shown) [Example 11] | = | 11.2 |
| Cc1nnc(SCC2=C(C(=O)O)N3C(=O)C(NC(=O)[C@H](NC(=O)c4c(O)cc(O)cc4O)c4ccc(O)cc4)C3SC2)s1 (stereo partly shown) [Example 8] | = | 120 |
| Cc1nnc(SCC2=C(C(=O)O)N3C(=O)C(NC(=O)[C@H](NC(=O)c4cc(O)c(O)c(O)c4O)c4ccc(O)cc4)C3SC2)s1 (stereo partly shown) [Example 14] | = | 10.1 |
| CC(=O)OCC1=C(C(=O)O)N2C(=O)C(NC(=O)C(NC(=O)c3cccc(O)c3O)c3ccccc3)C2SC1 (stereo not shown) [Example 19] | > | 200 |
| Cn1nnnc1SCC1=C(C(=O)O)N2C(=O)C(NC(=O)[C@H](NC(=O)c3cc(O)cc(O)c3)c3ccc(O)cc3)C2SC1 (stereo partly shown) [Example 16] | = | 16.5 |
| Cc1nnc(SCC2=C(C(=O)O)N3C(=O)C(NC(=O)[C@H](NC(=O)c4cc(O)c(O)c(O)c4)c4ccc(O)cc4)C3SC2)s1 (stereo partly shown) [Example 6] | = | 21.7 |
| Cn1nnnc1SCC1=C(C(=O)O)N2C(=O)C(NC(=O)[C@H](NC(=O)c3ccccc3O)c3ccc(O)cc3)C2SC1 (stereo partly shown) [Example 4] | = | 60 |
| Cn1c(SCC2=C(C(=O)O)N3C(=O)C(NC(=O)[C@H](NC(=O)c4cccc(O)c4O)c4ccc(O)cc4)C3SC2)nnc(O)c1=O (stereo partly shown) [Example 9] | = | 22.5 |
| Cn1nnnc1SCC1=C(C(=O)O)N2C(=O)C(NC(=O)[C@H](NC(=O)c3ccc(O)cc3O)c3ccc(O)cc3)C2SC1 (stereo partly shown) [Example 17] | = | 18 |
| Cc1nnc(SCC2=C(C(=O)O)N3C(=O)C(NC(=O)[C@H](NC(=O)c4cccc(O)c4)c4ccc(O)cc4)C3SC2)s1 (stereo partly shown) [Example 10] | = | 28.8 |
| Cc1nnc(SCC2=C(C(=O)O)N3C(=O)C(NC(=O)[C@H](NC(=O)c4ccc(O)cc4)c4ccc(O)cc4)C3SC2)s1 (stereo partly shown) [Example 12] | = | 50 |
